Data provenance: paper PMC8045554

molecular target: PCSK9 (proprotein convertase subtilisin/kexin type-9) (Homo sapiens, UniProt Q8NBP7); assay: SPR with immobilized PCSK9
VALUE KIND: Kd (µM)
Numbers only, in µM.

Data request: Given CC/C=C\[C@H](O)[C@H](O)C1=C(C)C(=O)[C@]2(O1)C(=O)N[C@@](OC)(C(=O)c1ccccc1)[C@@H]2O [PS, Pseurotin A] , state its recorded Kd.
Data returned: 23.4
